List of composite z-score values.
assay: small-molecule microarray binders of probe aEGFR, primary screen, biochemical, biotinylated probe, 635/667 nm fluorescence (AID 1097); details: higher = more signal;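 also: probe is a biotinylated anti-EGFR antibody binding compounds printed on slides; score combines fluorescence near 667 nm and signal to noise of each spot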
Answer with a number only.

{"Compound": "Cc1cc(C)c(-c2cc([C@H](C)ON=C3[C@H]4CCn5c(=O)n(-c6ccccc6)c(=O)n5[C@H]4[C@H](O)[C@@H]4O[C@H]34)on2)c(C)c1", "composite z-score": -0.0978}

Q) Can you share its composite z-score? I mean this compound: CN(C)c1ccc(C(O)C2C=CC3C(=O)N(c4ccccc4)C(=O)C3N2Nc2ccccc2F)cc1 (stereo not drawn)
A) 0.0904

Q) Look up composite z-score for this compound: COC(=O)CC=C[C@H](C)[C@H](CO)NS(=O)(=O)c1ccc(C)cc1
A) -0.0953

Q) Item under review: CCOc1ccc(N2C(=O)/C(=C/C=C/c3ccccc3OC)S(=O)(=O)C2c2cccc([N+](=O)[O-])c2)cc1 (stereo not drawn) . Reported composite z-score?
A) -0.103

Q) So what's the measured composite z-score for this one? CC(C)=NOCc1cccc(-c2cc(-c3ccccc3)no2)c1
A) 0.161

Q) So what does the record say about composite z-score for C=C(/C(=C/C[C@@H](OC(=O)c1ccncc1)c1ccc(OCCO)cc1)c1cnc2ccccc2c1)C(C)C ?
A) -0.0949

Q) Look up composite z-score: COCCNC(=O)OCC1CCCC2(CC(OC(=O)NCCc3ccc(F)cc3)CC(CCC(=O)N[C@@H](C)C(=O)OC)O2)O1 (stereo partly drawn)
A) 0.433

Q) Return reported composite z-score; argument: C[C@@H](c1ccccc1)N1C(=O)[C@H]2[C@H]3[C@H](O)[C@H](O)CC(=NNC(=O)OCc4ccccc4)[C@H]3CC[C@H]2C1=O
A) 0.229

----------
assay: splicing luciferase reporter signal modulators, primary screen, spliceosome inhibition project, cell-based, HEK293, splice +/- reporter (AID 1101); settings: luminescence, 24 h, higher = more signal, called active from +8 up or from −8 down;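 also: HEK293 cells carrying a splicing-competent luciferase reporter gene; test concentration not given here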
Classification by z-score follows these ranges: 0 = under -0.6, 1 = from -0.6 up to 0.08, 2 = 0.08 and over

{"Compound": "C=CCNC(=O)[C@H]1[C@@H]2C(=O)O[C@@H](c3ccccc3)[C@@H](c3ccccc3)N2[C@@H](c2ccc(O)cc2)[C@]12C(=O)N(C(=O)OCCOC)c1ccc(C#CC3=CCCCC3)cc12", "Answer label": 0}
{"Compound": "O=C1[C@H]2[C@H]3[C@H](O)[C@H](O)CC(=NO[C@@H]4O[C@H](CO)[C@@H](O)[C@H](O)[C@H]4O)[C@H]3CC[C@H]2C(=O)N1Cc1ccc2c(c1)OCO2", "Answer label": 1}
{"Compound": "CC(CCN1CCc2nc(-c3ccccc3)c(-c3ccccc3)cc2C1)=NOC(C)CN1CCCCc2nc(C)c(C)cc21 (centres undefined)", "Answer label": 1}
{"Compound": "CC1CC/C=C\\[C@H]2OC34C=CCN(C(C)C)C(=O)[C@H]3N(CCCO)C(=O)[C@@H]4C2C(=O)O1 (some centres undefined)", "Answer label": 1}
{"Compound": "CC(C)(C)OC(=O)CC[C@]1(C(=O)NCc2ccccc2)N=C(c2ccc(OCCCO)cc2)O[C@H]1c1ccccc1", "Answer label": 2}

Q) Class for COC(=O)C1(C)C=C2C(=C(c3ccccc3)C(=O)C2C)CN1 (centres undefined) ?
A) 2

Q) Hi there! Could you help me figure out the category for CC(C)=C1C(=O)C(c2ccccc2)=C2CN3C(=O)N(CCc4ccccc4)C(=O)[C@]3(Cc3ccc(F)cc3)[C@H]21 please?
A) 2

Q) Into which bin does this compound go? [N-]=[N+]=Nc1ccccc1C[C@@]1(C(N)=O)N=C(c2ccc(OCCCO)cc2)O[C@@H]1c1ccccc1
A) 0

Q) Field: class (z-score) — entry: CO[C@@H]1COC(=O)CC=C[C@@H](C)[C@@H]2C=C[C@@H](O)[C@@H](COC(=O)CC=C[C@H]1C)O2
A) 0

Q) Record COc1ccccc1CN1C(=O)c2ccccc2[C@@]2(Cc3ccccc3N(C(C)C)C2=O)[C@@H]1c1ccc(CO)cc1 — which class?
A) 0

Q) Which band does CC(CCC(=O)OC[C@H]1O[C@H](C#Cc2ccccc2)C=C[C@@H]1Oc1ccc(C)cc1)=NOC[C@@H](O)[C@H]1O[C@@H]2OC(C)(C)O[C@@H]2[C@H]1O fall in?
A) 2

Q) Category of CO[C@H]1O[C@H](CO)[C@@H](OC(=O)Nc2ccc(C#N)cc2)[C@H](OC(=O)c2cc3ccccc3[nH]2)[C@H]1OC(=O)c1cc2ccccc2[nH]1 , please.
A) 1

Q) For the record COc1ccc(CCNC(=O)[C@@H]2c3ccccc3C(=O)N(c3ccc(C)cn3)[C@H]2c2ccc(CO)cc2)cc1 , report the class its z-score corresponds to.
A) 1
